# Assayed Target: IGF2 (Homo sapiens, UniProt P01344)
# Sequence (P01344 25-91): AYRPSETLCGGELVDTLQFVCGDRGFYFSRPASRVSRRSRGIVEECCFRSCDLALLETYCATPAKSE
# Assay Method Text: SPR (Biacore T200) of recombinant IGF2R domain 11 mutants on immobilised biotinylated IGF2
# Type: binding
# Parameters: purchased GroPep
# Run Parameters: Table 1; 25° C., HBS-EP pH 7.4
Examples of molecules with documented Kinetics kon follow.
Express your answer in M⁻¹ s⁻¹, writing the number without its unit.

Example molecules with recorded Kinetics kon:
Molecule	Readout Kind	Quantitative Readout
S1600N: domain 11 AB5 background + FG loop S1600N (protein) MKSNEHDDCQVTNPSTGHLFDLSSLSGRAGFTAAYAKGWGVYMSICGENENCPPGVGACFGQTRISVGKANKRLRYVDQVLQLVYKDGSPCPNKSGLSYKSVISFVCRPEAGPTNRPMLISLDKQTCTLFFSWHTPLACEQATECSV	Kinetics kon	3.95e+06
L1604A: domain 11 AB5 background + FG loop L1604A (protein) MKSNEHDDCQVTNPSTGHLFDLSSLSGRAGFTAAYAKGWGVYMSICGENENCPPGVGACFGQTRISVGKANKRLRYVDQVLQLVYKDGSPCPSKSGASYKSVISFVCRPEAGPTNRPMLISLDKQTCTLFFSWHTPLACEQATECSV	Kinetics kon	790000

In: Consider the molecule WT: wild-type human IGF2R domain 11 (residues 1511-1650), AB loop YSEKGL (protein) MKSNEHDDCQVTNPSTGHLFDLSSLSGRAGFTAAYSEKGLVYMSICGENENCPPGVGACFGQTRISVGKANKRLRYVDQVLQLVYKDGSPCPSKSGLSYKSVISFVCRPEAGPTNRPMLISLDKQTCTLFFSWHTPLACEQATECSV and give its measured Kinetics kon.
Out: 5e+06

In: And then S1602Q: domain 11 AB5 background + FG loop S1602Q (protein) MKSNEHDDCQVTNPSTGHLFDLSSLSGRAGFTAAYAKGWGVYMSICGENENCPPGVGACFGQTRISVGKANKRLRYVDQVLQLVYKDGSPCPSKQGLSYKSVISFVCRPEAGPTNRPMLISLDKQTCTLFFSWHTPLACEQATECSV , what is it?
Out: 5.88e+06

In: And then Q1632A: domain 11 HI loop mutant Q1632A, probably AB5 background (protein) MKSNEHDDCQVTNPSTGHLFDLSSLSGRAGFTAAYAKGWGVYMSICGENENCPPGVGACFGQTRISVGKANKRLRYVDQVLQLVYKDGSPCPSKSGLSYKSVISFVCRPEAGPTNRPMLISLDKATCTLFFSWHTPLACEQATECSV , what is it?
Out: 4.5e+06

In: And then AB3: IGF2R domain 11 with AB loop mutations E1544K, K1545S, L1547V (YSKSGV) (protein) MKSNEHDDCQVTNPSTGHLFDLSSLSGRAGFTAAYSKSGVVYMSICGENENCPPGVGACFGQTRISVGKANKRLRYVDQVLQLVYKDGSPCPSKSGLSYKSVISFVCRPEAGPTNRPMLISLDKQTCTLFFSWHTPLACEQATECSV , what is it?
Out: 2.76e+06

In: And then S1602A: domain 11 AB5 background + FG loop S1602A (protein) MKSNEHDDCQVTNPSTGHLFDLSSLSGRAGFTAAYAKGWGVYMSICGENENCPPGVGACFGQTRISVGKANKRLRYVDQVLQLVYKDGSPCPSKAGLSYKSVISFVCRPEAGPTNRPMLISLDKQTCTLFFSWHTPLACEQATECSV , what is it?
Out: 1.57e+06

In: And then K1631R: domain 11 HI loop mutant K1631R, probably AB5 background (protein) MKSNEHDDCQVTNPSTGHLFDLSSLSGRAGFTAAYAKGWGVYMSICGENENCPPGVGACFGQTRISVGKANKRLRYVDQVLQLVYKDGSPCPSKSGLSYKSVISFVCRPEAGPTNRPMLISLDRQTCTLFFSWHTPLACEQATECSV , what is it?
Out: 7.18e+06

Provenance of the data: patent US10494415B2
